Tested on: 429239-143-T-J1-PDC complex spheroid viability
Experiment: Anticancer human tumor 429239-143-T-J1-PDC patient-derived small cell lung carcinoma cell line growth inhibition [POLQ]
Details: second compound 1 µM; first compound 0.316 µM; active compounds read low
Task for the reader: assign each of the following molecules its reported viability, T/C.
One number for each entry, in %.

// known answers, use as guide
MOLECULE: O=c1[nH]cc(F)c(=O)[nH]1 + Cc1cccc(N(C)C(=O)C2C(O)CCN2c2nc(C)cc(C(F)(F)F)c2C#N)c1
PROPERTY_MEASURED: viability, T/C
UNIT_TAG: %
RESULT_VALUE: 120
//
MOLECULE: CC1COCCN1c1cc(C2(O)CC3CCC(C2)O3)c2cnn(-c3ccn[nH]3)c2n1 (stereo not drawn) + COC1C(OC(N)=O)C(O)C(Oc2ccc3c(O)c(NC(=O)c4ccc(O)c(CC=C(C)C)c4)c(=O)oc3c2C)OC1(C)C
PROPERTY_MEASURED: viability, T/C
UNIT_TAG: %
RESULT_VALUE: 19.2

Now take the following molecule into account.
Exam item: Give a short answer stating reported viability, T/C for CCc1c2c(nc3ccc(O)cc13)-c1cc3c(c(=O)n1C2)COC(=O)[C@]3(O)CC + Cc1cccc(N(C)C(=O)C2C(O)CCN2c2nc(C)cc(C(F)(F)F)c2C#N)c1 .
Marked response: 17.5

###

Task for the reader: assign each of the following compounds its reported viability, T/C.
System: 429239-143-T-J1-PDC complex spheroid viability
Assay: Anticancer human tumor 429239-143-T-J1-PDC cell line growth inhibition [POLQ];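 also: luminescence signal used as surrogate measure of viable cells; spheroids exposed to compounds for seven days before readout; 100% = DMSO vehicle control viability as luminescence relative to vehicle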
Details: second compound 10 µM; first compound 0.000316 µM; active compounds read low
One number for each entry, in %.

// known answers, use as guide
COMPOUND: CC[C@@]1(O)C(=O)OCc2c1cc1n(c2=O)Cc2cc3c(CN(C)C)c(O)ccc3nc2-1 + Cc1cccc(N(C)C(=O)C2C(O)CCN2c2nc(C)cc(C(F)(F)F)c2C#N)c1
UNIT_TAG: %
viability, T/C: 101
//
COMPOUND: CC[C@@]1(O)C(=O)OCc2c1cc1n(c2=O)Cc2cc3c(CN(C)C)c(O)ccc3nc2-1 + Nc1ccc(C#CCN(C(=O)Cc2ncc(C(F)(F)F)cc2C(F)(F)F)c2ccc(F)cc2)nn1
UNIT_TAG: %
viability, T/C: 104
//
COMPOUND: CC[C@@]1(O)C(=O)OCc2c1cc1n(c2=O)Cc2cc3c(CN(C)C)c(O)ccc3nc2-1 + COC1C(OC(N)=O)C(O)C(Oc2ccc3c(O)c(NC(=O)c4ccc(O)c(CC=C(C)C)c4)c(=O)oc3c2C)OC1(C)C
UNIT_TAG: %
viability, T/C: 87.8

Fill in viability, T/C for each of the 2 compounds listed.
1. Cn1ncnc1[C@H]1c2n[nH]c(=O)c3cc(F)cc(c23)N[C@@H]1c1ccc(F)cc1 + Cc1cccc(N(C)C(=O)C2C(O)CCN2c2nc(C)cc(C(F)(F)F)c2C#N)c1
2. Cn1ncnc1[C@H]1c2n[nH]c(=O)c3cc(F)cc(c23)N[C@@H]1c1ccc(F)cc1 + Nc1ccc(C#CCN(C(=O)Cc2ncc(C(F)(F)F)cc2C(F)(F)F)c2ccc(F)cc2)nn1

Marked response:
[91.8, 108]

Exam item: Give a short answer stating reported viability, T/C for Cn1ncnc1[C@H]1c2n[nH]c(=O)c3cc(F)cc(c23)N[C@@H]1c1ccc(F)cc1 + COC1C(OC(N)=O)C(O)C(Oc2ccc3c(O)c(NC(=O)c4ccc(O)c(CC=C(C)C)c4)c(=O)oc3c2C)OC1(C)C .
Marked response: 89.5

###

Test system: 429239-143-T-J1-PDC complex spheroid viability
Assay: Anticancer human tumor 429239-143-T-J1-PDC cell line growth inhibition [POLQ];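 also: luminescence signal used as surrogate measure of viable cells; spheroids exposed to compounds for seven days before readout; 100% = DMSO vehicle control viability as luminescence relative to vehicle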
Details: second compound 10 µM; first compound 1 µM; active compounds read low
Task for the reader: assign each of the following molecules its reported viability, T/C.

MOLECULE: CCc1c2c(nc3ccc(O)cc13)-c1cc3c(c(=O)n1C2)COC(=O)[C@]3(O)CC + COC1C(OC(N)=O)C(O)C(Oc2ccc3c(O)c(NC(=O)c4ccc(O)c(CC=C(C)C)c4)c(=O)oc3c2C)OC1(C)C
viability, T/C: 5.55%

MOLECULE: C=CCn1c(=O)c2cnc(Nc3ccc(N4CCN(C)CC4)cc3)nc2n1-c1cccc(C(C)(C)O)n1 + COC1C(OC(N)=O)C(O)C(Oc2ccc3c(O)c(NC(=O)c4ccc(O)c(CC=C(C)C)c4)c(=O)oc3c2C)OC1(C)C
viability, T/C: 22.8%

MOLECULE: CC1COCCN1c1cc(C2(O)CC3CCC(C2)O3)c2cnn(-c3ccn[nH]3)c2n1 (stereo not given) + Cc1cccc(N(C)C(=O)C2C(O)CCN2c2nc(C)cc(C(F)(F)F)c2C#N)c1
viability, T/C: 10.8%

MOLECULE: O=c1[nH]cc(F)c(=O)[nH]1 + Cc1cccc(N(C)C(=O)C2C(O)CCN2c2nc(C)cc(C(F)(F)F)c2C#N)c1
viability, T/C: 83.9%

Now take the following molecule into account.
Exam item: Give a short answer stating reported viability, T/C for C=CCn1c(=O)c2cnc(Nc3ccc(N4CCN(C)CC4)cc3)nc2n1-c1cccc(C(C)(C)O)n1 + Cc1cccc(N(C)C(=O)C2C(O)CCN2c2nc(C)cc(C(F)(F)F)c2C#N)c1 .
Marked response: 16.6%

###

Tested on: 429239-143-T-J1-PDC complex spheroid viability
Test: Anticancer human tumor 429239-143-T-J1-PDC cell line growth inhibition [POLQ];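 also: luminescence signal used as surrogate measure of viable cells; spheroids exposed to compounds for seven days before readout; 100% = DMSO vehicle control viability as luminescence relative to vehicle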
Conditions: second compound 3.16 µM; first compound 0.1 µM; active compounds read low
PROPERTY_MEASURED: viability, T/C

COMPOUND: O=c1[nH]cc(F)c(=O)[nH]1 + Nc1ccc(C#CCN(C(=O)Cc2ncc(C(F)(F)F)cc2C(F)(F)F)c2ccc(F)cc2)nn1
viability, T/C: 105%
//
COMPOUND: C#Cc1c(F)ccc2cc(O)cc(-c3ncc4c(N5CC6CCC(C5)N6)nc(OCC56CCCN5CC(F)C6)nc4c3F)c12 (stereo not drawn) + COC1C(OC(N)=O)C(O)C(Oc2ccc3c(O)c(NC(=O)c4ccc(O)c(CC=C(C)C)c4)c(=O)oc3c2C)OC1(C)C
viability, T/C: 101%

Exam item: Give viability, T/C; test system 429239-143-T-J1-PDC complex spheroid viability; compound Nc1ccn(C2OC(CO)C(O)C2(F)F)c(=O)n1 (stereo not drawn) + Nc1ccc(C#CCN(C(=O)Cc2ncc(C(F)(F)F)cc2C(F)(F)F)c2ccc(F)cc2)nn1
Marked response: 7.11%

###

Tested on: 429239-143-T-J1-PDC complex spheroid viability
Assay: Anticancer human tumor 429239-143-T-J1-PDC cell line growth inhibition [POLQ];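 also: luminescence signal used as surrogate measure of viable cells; spheroids exposed to compounds for seven days before readout; 100% = DMSO vehicle control viability as luminescence relative to vehicle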
Conditions: second compound 0.0316 µM; first compound 0.316 µM; active compounds read low
PROPERTY_MEASURED: viability, T/C (%)
Give bare numbers, in %.

Fill in viability, T/C for each of the 5 compounds listed.
1. CC(C)n1c(=O)n(C)c2cnc3cc(F)c(-c4ccc(OCCCN5CCCCC5)nc4)cc3c21 + Nc1ccc(C#CCN(C(=O)Cc2ncc(C(F)(F)F)cc2C(F)(F)F)c2ccc(F)cc2)nn1
2. COc1cc2cc(C(=O)CCC(=O)O)sc2cc1OC + Nc1ccc(C#CCN(C(=O)Cc2ncc(C(F)(F)F)cc2C(F)(F)F)c2ccc(F)cc2)nn1
3. O=C(c1cc(Cc2n[nH]c(=O)c3ccccc23)ccc1F)N1CCN(C(=O)C2CC2)CC1 + COC1C(OC(N)=O)C(O)C(Oc2ccc3c(O)c(NC(=O)c4ccc(O)c(CC=C(C)C)c4)c(=O)oc3c2C)OC1(C)C
4. COc1ccc([C@@H](O)c2cc(-c3ncnc4cc(N5CCOCC5)ccc34)c(F)cc2Cl)nn1 + Cc1cccc(N(C)C(=O)C2C(O)CCN2c2nc(C)cc(C(F)(F)F)c2C#N)c1
5. CC1COCCN1c1cc(C2(S(C)(=N)=O)CC2)nc(-c2ccnc3[nH]ccc23)n1 (stereo unspecified) + Nc1ccc(C#CCN(C(=O)Cc2ncc(C(F)(F)F)cc2C(F)(F)F)c2ccc(F)cc2)nn1

Marked response:
92.2
89.8
79.1
94.4
100

Fill in viability, T/C for each of the 2 compounds listed.
1. C=CC(=O)N1CCN(c2nc(=O)n(-c3c(C)ccnc3C(C)C)c3nc(-c4c(O)cccc4F)c(F)cc23)C(C)C1 (stereo unspecified) + Nc1ccc(C#CCN(C(=O)Cc2ncc(C(F)(F)F)cc2C(F)(F)F)c2ccc(F)cc2)nn1
2. CCc1cc2c(N3CCc4c(cc(Cn5ccnc5)cc4-c4cn(C)nc4C(F)(F)F)C3=O)ccnc2c(OC)n1 + Nc1ccc(C#CCN(C(=O)Cc2ncc(C(F)(F)F)cc2C(F)(F)F)c2ccc(F)cc2)nn1

Marked response:
97.2
85.2

Fill in viability, T/C for each of the 4 compounds listed.
1. O=c1[nH]cc(F)c(=O)[nH]1 + Nc1ccc(C#CCN(C(=O)Cc2ncc(C(F)(F)F)cc2C(F)(F)F)c2ccc(F)cc2)nn1
2. COc1cc(C2c3cc4c(cc3C(OC3OC5COC(C)OC5C(O)C3O)C3COC(=O)C23)OCO4)cc(OC)c1O (stereo unspecified) + COC1C(OC(N)=O)C(O)C(Oc2ccc3c(O)c(NC(=O)c4ccc(O)c(CC=C(C)C)c4)c(=O)oc3c2C)OC1(C)C
3. CCCS(=O)(=O)Nc1ccc(F)c(C(=O)c2c[nH]c3ncc(-c4ccc(Cl)cc4)cc23)c1F + Nc1ccc(C#CCN(C(=O)Cc2ncc(C(F)(F)F)cc2C(F)(F)F)c2ccc(F)cc2)nn1
4. C=CCn1c(=O)c2cnc(Nc3ccc(N4CCN(C)CC4)cc3)nc2n1-c1cccc(C(C)(C)O)n1 + Nc1ccc(C#CCN(C(=O)Cc2ncc(C(F)(F)F)cc2C(F)(F)F)c2ccc(F)cc2)nn1

Marked response:
[96.6, 53, 101, 88.1]
